- System under test: D3 receptors (Chlorocebus aethiops, UniProt P52703)
- Sequence (P52703 whole entry): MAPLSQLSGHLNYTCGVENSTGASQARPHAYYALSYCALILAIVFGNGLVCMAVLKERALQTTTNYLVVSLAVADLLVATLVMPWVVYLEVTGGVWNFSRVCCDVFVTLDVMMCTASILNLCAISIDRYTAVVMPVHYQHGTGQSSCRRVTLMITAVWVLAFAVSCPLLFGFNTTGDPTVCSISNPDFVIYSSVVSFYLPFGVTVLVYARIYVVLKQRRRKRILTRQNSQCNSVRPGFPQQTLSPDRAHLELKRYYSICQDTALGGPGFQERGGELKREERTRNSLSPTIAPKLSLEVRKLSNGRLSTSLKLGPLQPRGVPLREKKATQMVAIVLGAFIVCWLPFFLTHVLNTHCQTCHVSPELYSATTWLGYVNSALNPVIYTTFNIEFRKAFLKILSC
- Procedure details: D3 receptor binding, displacement of 3H-YM 09151-2
- Measurement context: recombinant receptors in COS cell pellets; 0.5 nM 3H-YM 09151-2; 48° C; pH 7.4
Counter-ions that a name gives are not always drawn.
In this section, each of the molecules is paired with its reported Ki.
Quantity: Ki (nM)

[[record]]
molecule = "O=C(NCCCCN1CCN(c2cccc(Cl)c2Cl)CC1)c1ccc2oc3ccccc3c2c1 [Compound 1, hydrochloride]"
endpoint_result = 1

[[record]]
molecule = "O=C(NCCCCN1CCN(c2cccc3ccccc23)CC1)c1ccc2oc3ccccc3c2c1 [Compound 2, hydrochloride]"
endpoint_result = 1.3

